biological target: Carbonic anhydrase 9 (Homo sapiens); experiment: Binding affinity to human recombinant CA IX assessed as inhibition constant
endpoint-label: pKi
For clarity, pKi is expressed as the negative log10 of concentration in mol/L.

Query: pKi; subject: Nc1nn(C(=O)C23CC4CC(CC(C4)C2)C3)c(N)c1/N=N/c1ccccc1
7.07

* * *

target: Carbonic anhydrase 9 (Homo sapiens); assay: Binding affinity human CA IX assessed as inhibition constant
Task for the reader: assign each of the following molecules its reported Ki.
Please state the figure in µM; there is no need to write the unit.

Could you tell me which Ki is on file for Cc1nn(-c2ccc(S(N)(=O)=O)cc2)c2c1C(c1ccc(F)cc1F)C(C#N)=C(N)O2 (stereo unspecified) ?
0.019

May I ask what Ki has been recorded for COc1cccc(NC(=O)Nc2ccc(S(N)(=O)=O)cc2)c1 ?
0.0041

Would you mind telling me what Ki value was observed for CCOC(=O)c1sc2ncnc(Nc3ccc(S(N)(=O)=O)cc3)c2c1C ?
0.0138

Look up Ki: Cc1nn(-c2ccc(S(N)(=O)=O)cc2)c2c1C(c1c(F)cccc1F)C(C#N)=C(N)O2 (stereo unspecified)
0.019

I'd like to know its Ki. The molecule in question is COc1ccc(C2C(C#N)=C(N)Oc3c2c(C)nn3-c2ccc(S(N)(=O)=O)cc2)cc1O (stereo unspecified)
0.012

Please look up its Ki: Cc1sc2ncnc(Nc3ccc(S(N)(=O)=O)cc3)c2c1C
0.0161

* * *

target: Carbonic anhydrase 1 (Homo sapiens); assay: Binding affinity to human CA I assessed as inhibition constant
Sequence (P00915 whole entry): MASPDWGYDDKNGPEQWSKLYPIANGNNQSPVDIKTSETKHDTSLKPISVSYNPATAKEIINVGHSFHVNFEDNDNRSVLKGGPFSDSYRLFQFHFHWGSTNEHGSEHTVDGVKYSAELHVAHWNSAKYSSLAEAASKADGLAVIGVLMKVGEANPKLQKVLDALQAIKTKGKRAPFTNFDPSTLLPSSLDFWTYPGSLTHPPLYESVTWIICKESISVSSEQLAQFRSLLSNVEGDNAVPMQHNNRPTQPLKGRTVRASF
endpoint-label: pKi
Reminder that pKi means the negative base-10 logarithm of the concentration expressed in mol/L.

Report pKi for Cn1c(N)c(NCc2ccc(Br)cc2O)c(=O)n(C)c1=O please.
7.44

// query pKi value for entry CCOC(=O)c1sc(NC(=O)c2ccc(S(N)(=O)=O)cc2)nc1C(F)(F)F
7.41

Data request, read-out pKi, for NS(=O)(=O)c1ccc(C(=O)Nc2nc(C(=O)OCCCN3CCOCC3)cs2)cc1
7.56

// returns reported pKi for input C/C(=N\Nc1nc(-c2ccc(C)cc2)cs1)c1nnn(-c2ccc(S(N)(=O)=O)cc2)c1C
7.39

I am curious: what pKi value has been reported for NC1=C(n2c(-c3ccc(Cl)cc3)cs/c2=N\C(=O)c2c(F)cccc2F)C(=O)c2ccccc2C1=O ?
7.17

* * *

target: Carbonic anhydrase 2 (Homo sapiens, UniProt P00918); assay: Binding affinity to human CA II assessed as inhibition constant pre-incubated for 15 mins by stopped-flow CO2-hydrase assay method
endpoint-label: pKi
// scale note: pKi = -log10(conc_M); give the bare number

// returns reported pKi for input NS(=O)(=O)c1ccc(-c2ccc(-c3cnc(C(=O)N4CCNCC4)o3)s2)cc1
8.40

* * *

target: Carbonic anhydrase 2 (Homo sapiens, UniProt P00918); test: Binding affinity to human CA II assessed as inhibition constant
Could you please report measured pKi for the items listed next?
Please express pKi as -log10 of the molar concentration.

Give its pKi value. Item: N=C(N)NS(=O)(=O)c1ccc(/N=N/Nc2c(F)c(F)c(F)c(F)c2F)cc1
8.09

I have this compound here, NS(=O)(=O)c1ccc(C(=O)Nc2ncc(C(=O)NCCN3CCOCC3)s2)cc1 , and I need its recorded pKi.
8.19

Bench note: what pKi did NS(=O)(=O)c1ccc(C(=O)Nc2nc(C(=O)OCCN3CCOCC3)cs2)cc1 show?
8.22

Any idea what its pKi is? The compound is COc1ccc(-c2cs/c(=N\C(=O)c3c(F)cccc3F)n2C2=C(N)C(=O)c3ccccc3C2=O)cc1
7.26

Given the entry NS(=O)(=O)c1ccc(C(=O)Nc2nc(C(=O)OCCCN3CCOCC3)cs2)cc1 , report its measured pKi.
8.16
